target: His-LAMA4 as used in Example 6 (species not stated) (Homo sapiens (Human)) (UniProt Q16363); assay: ForteBio BLI, LAMA-His on anti-His sensor, antibody 16.7 nM
Measured Endpoint: Kd (pM)
Give a bare numeral; the unit pM is implied.

Q. Read off the recorded Kd for chimeric 19C12 antibody (antibody, V domains shown) VH: QVQLQQSGAELVKPGASVKISCKASGYAFSTYWMNWVKQRPGEGLEWIGQIYPGDGDTNYNGKFKGKATLTADKSSSTAYMQLSSLTSEDSAVYFCARSDGYYDYWGQGTTLTVSS VL: NIVLTQSPASLAVSLGQRATISCRASESVDSYGTSFMHWYQQKPGQPPKLLICLASSLESGVPARFSGSGSRTDFTLTIDPVEADDAATYYCQQNNEDPPTFGAGTKLELKR
A. 53.8

---
Q. Read off the recorded Kd for humanized 19C12 antibody H3L6 (antibody, V domains shown) VH: EVQLQQSGAELVKPGASVKVSCKASGYAFSTYWMNWVRQAPGQGLEWIGQIYPGDGDTNYNGKFKGRVTITADKSTSTAYMELSSLRSEDTAVYFCARSDGYYDYWGQGTTVTVSS VL: DIVLTQSPASLAVSLGERATISCRASESVDSYGTSFMHWYQQKPGQPPKLLISLASSLESGVPARFSGSGSGTDFTLTISPVEAEDAATYYCQQNNEDPPTFGAGTKLEIKR
A. 62.6

Q. Read off the recorded Kd for humanized 19C12 antibody H2L4 (antibody, V domains shown) VH: QVQLQQSGAELVKPGASVKVSCKASGYAFSTYWMNWVRQAPGQGLEWIGQIYPGDGDTNYNGKFKGRVTITADKSTSTAYMELSSLRSEDTAVYFCARSDGYYDYWGQGTTVTVSS VL: NIVLTQSPASLAVSLGERATISCRASESVDSYGTSFMHWYQQKPGQPPKLLISLASSLESGVPARFSGSGSGTDFTLTISPVEAEDAATYYCQQNNEDPPTFGAGTKLEIKR
A. 22.7

Q. Read off the recorded Kd for humanized 19C12 antibody H2L3 (antibody, V domains shown) VH: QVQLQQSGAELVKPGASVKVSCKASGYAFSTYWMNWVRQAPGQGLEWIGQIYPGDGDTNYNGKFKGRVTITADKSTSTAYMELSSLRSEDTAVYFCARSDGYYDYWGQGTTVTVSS VL: NIVLTQSPASLAVSLGERATISCRASESVDSYGTSFMHWYQQKPGQPPKLLICLASSLESGVPARFSGSGSRTDFTLTIDPVEAEDAATYYCQQNNEDPPTFGAGTKLEIKR
A. 50.7

The origin of these recorded values is patent US20170158755A1.
